The values you see were collected from patent US20220177594A1.

targetSystem: T1, canine OSMR on canine cells (canine, UniProt A0A8I3MI11 28-967)
T1 sequence: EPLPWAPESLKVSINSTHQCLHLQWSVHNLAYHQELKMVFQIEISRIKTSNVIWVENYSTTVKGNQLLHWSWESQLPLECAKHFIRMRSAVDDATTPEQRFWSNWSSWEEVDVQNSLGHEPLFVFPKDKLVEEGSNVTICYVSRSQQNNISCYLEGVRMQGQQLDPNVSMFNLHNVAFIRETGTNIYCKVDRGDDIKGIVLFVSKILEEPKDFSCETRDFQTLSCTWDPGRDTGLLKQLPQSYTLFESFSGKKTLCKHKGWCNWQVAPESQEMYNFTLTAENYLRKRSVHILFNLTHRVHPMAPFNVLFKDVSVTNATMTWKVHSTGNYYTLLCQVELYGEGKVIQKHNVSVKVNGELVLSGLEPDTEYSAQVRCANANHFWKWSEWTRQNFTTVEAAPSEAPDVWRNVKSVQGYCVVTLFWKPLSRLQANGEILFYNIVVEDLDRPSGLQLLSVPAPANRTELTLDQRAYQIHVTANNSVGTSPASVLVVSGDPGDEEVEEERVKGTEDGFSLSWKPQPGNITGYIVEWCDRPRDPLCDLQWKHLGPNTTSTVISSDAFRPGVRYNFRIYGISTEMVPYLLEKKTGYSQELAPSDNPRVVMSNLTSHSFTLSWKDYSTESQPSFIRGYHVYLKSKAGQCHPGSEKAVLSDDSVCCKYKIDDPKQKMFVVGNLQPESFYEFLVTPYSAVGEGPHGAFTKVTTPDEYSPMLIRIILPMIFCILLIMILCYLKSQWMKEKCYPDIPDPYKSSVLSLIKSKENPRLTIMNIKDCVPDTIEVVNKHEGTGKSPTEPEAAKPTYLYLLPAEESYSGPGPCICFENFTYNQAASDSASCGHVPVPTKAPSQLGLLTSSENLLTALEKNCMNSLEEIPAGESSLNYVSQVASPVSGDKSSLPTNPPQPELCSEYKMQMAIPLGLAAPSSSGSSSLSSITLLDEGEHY
measurementProtocol: cell-based or functional assay
Let's look at some binders and their measured IC50, inhibition of canine OSM pSTAT3 signaling, canine DH82 cells.
Write the number in µg/ml without appending the unit.

Mu_14C04 (antibody, V domains shown, Mouse hybridoma IgG) VH: EVQLQESGAELVKPGASVKISCKASGYAFSNYWMNWMKQRPGKGLEWIGQIYPGHVNTNYNGNFKDKATLTADKSSSTAYMQLSSLTSEDSAVYFCARSADNSGFVLFAYWGQGTLVTVS VL: DIVLTQSPASLAVSLGQRATISCRASKSVSTSGYSYLHWYQQKPGQPPKLLIFLASNLESGVPARFSGSGSGTDFTLNIHPVEEEDAATYYCQHSRELPLTFGAGTKLELK	0.73
Mu_19F07 (antibody, V domains shown, Mouse hybridoma IgG) VH: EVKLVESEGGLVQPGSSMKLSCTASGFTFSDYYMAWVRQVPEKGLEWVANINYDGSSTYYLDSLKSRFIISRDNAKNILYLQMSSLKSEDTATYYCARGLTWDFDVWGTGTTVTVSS VL: DIVMTQSHKFMSPSVGDRVSITCKASQDVDTAVAWYQQKPGQSPKLLIYLASTRHTGVPDRFTGSGSGTDFTLTISNVQSEDLADYFCQQYSRFPLTFGAGTKLELK	0.27

Here's the next entry for you.
State the recorded IC50, inhibition of canine OSM pSTAT3 signaling, canine DH82 cells for this entry: Mu_10F07 (antibody, V domains shown, Mouse hybridoma IgG) VH: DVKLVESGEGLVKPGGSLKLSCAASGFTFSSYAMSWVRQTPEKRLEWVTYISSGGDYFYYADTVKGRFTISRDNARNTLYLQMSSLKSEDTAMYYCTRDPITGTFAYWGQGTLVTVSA VL: DIQMTQTTSSLSASLGDRVTISCRASQDITNYLNWYQQKPDGTVKLLIYYTSTLHSGVPSRFSGSGSGTDFSLTISNLEQEDIATYFCQQGHMLPWTFGGGTKLEIK
0.04
